Taken from PubChem BioAssay (NCI).

# System: NCI-H522 lung
# ASSAY_SUMMARY: NCI tumour cell line growth inhibition, 48 h
RESULT_TYPE: TGI

Some entries whose results are on file:
>>> readout_value("COc1ccc2[nH]cc(CCNC(=O)[C@H](Cc3ccc(O)cc3)NC(=O)[C@@H](NCC(F)(F)F)C(C)C)c2c1")
"> 100 µM"
>>> readout_value("CCOP(=O)(CC(=O)C1CC1)OCC")
"> 100 µM"
>>> readout_value("CC(C)C1CSC2N1C(=O)C2(OCc1ccccc1)C1CC1 (stereo unspecified)")
"> 100 µM"
>>> readout_value("Cc1c(CN2CCN(C(=O)[C@H](C)O)CC2)sc2c(N3CCOCC3)nc(-c3cnc(N)nc3)nc12")
"> 10 µM"

Return TGI (reported value) for this molecule: COc1ccc(S(=O)(=O)Nc2ccc(-c3csc(N4C(=O)/C(=C/c5ccccc5[N+](=O)[O-])N=C4c4ccccc4)n3)cc2)cc1Cl
> 100 µM

For Nc1nc(Cl)cc(NCC2(CCO)CCC2)n1 , write its TGI.
> 100 µM

###

# Tested on: CCRF-CEM leukemia
# ASSAY_SUMMARY: NCI tumour cell line growth inhibition, 48 h
Listing of recorded TGI by entry.

>>> readout_value("CC1C(C)(C)C23CC12C1(OCCO1)C3Br (configuration not stated)")
"> 100 µM"
>>> readout_value("Cc1ccc(/C=C/C(=O)c2ccc(Cl)c(Cl)c2)cc1")
"> 100 µM"
>>> readout_value("COc1ccc(CC(=O)NCCc2ccc(OC)c(OC)c2OC)cc1")
"> 100 µM"
>>> readout_value("O=c1[nH]c(Nc2ccc(Br)c(C(F)(F)F)c2)nc2nc[nH]c12")
"> 100 µM"
>>> readout_value("OC1NC2Nc3ccccc3NC2NC1O (configuration not stated)")
"> 100 µM"
>>> readout_value("CC(=O)OCc1c(O)c2c([nH]c1=O)CCc1ccccc1-2")
"297 µM"
>>> readout_value("COc1ccc(CCN2CCN(CCCc3ccccc3)CC2)cc1")
"> 100 µM"
>>> readout_value("Cc1cccc(-c2nnc3s/c(=C\\c4ccc(N(C)C)cc4)c(=O)n23)c1")
"> 100 µM"

Output measured TGI for this item: Nc1ncnc2c1ncn2[C@H]1C=C[C@@H](NO)C1
> 100 µM

Give TGI for the following molecule: C(=N\Nc1ncc(-c2cc3cc4c(cc3o2)OCO4)s1)/c1ccco1
16.2 µM

Indicate the recorded TGI value for this molecule: CCOP(=O)(OCC)Oc1c(OC)c2[nH]c(C(=O)OC)cc2c2c(C(=O)O)c[nH]c12
> 100 µM

Query TGI for O=S(=O)(N=C1C(Cl)=C(Cl)C(=NS(=O)(=O)c2ccccc2)C(Cl)=C1Cl)c1ccccc1
90.9 µM

State its TGI: CCN1CCN(CCNc2nccc(-c3c(-c4ccc(F)c(O)c4)nc4occn34)n2)S1(=O)=O
> 100 µM

###

# System: OVCAR-4 ovarian
# ASSAY_SUMMARY: NCI tumour cell line growth inhibition, 48 h
RESULT_TYPE: TGI

>>> readout_value("CCCCN(CC)C(=O)C(=O)Cc1nc2ccc(C(=O)c3ccccc3)cc2[nH]c1=O")
"> 100 µM"
>>> readout_value("S=C(NCc1ccccc1)Nc1sc(=NCc2ccccc2)nc2sc3c(c12)CCN(N1CCc2c(sc4nc(=NCc5ccccc5)sc(NC(=S)NCc5ccccc5)c24)C1)C3")
"> 91 µM"
>>> readout_value("Fc1cccc(COc2ccc(Nc3ncnc4onc(-c5ccccc5)c34)cc2)c1")
"> 100 µM"
>>> readout_value("O=[N+]([O-])c1ncc(N(CCO)CCO)s1")
"> 100 µM"
>>> readout_value("O=C1CCCCCCC2=C1C(Sc1ccccc1)CC2 (stereo unspecified)")
"> 100 µM"

With those in mind, consider the next compound.
Tell me TGI reported for CCC[CH2][Sn](=[O])[CH2]CCC
> 50 µM

###

# Tested on: OVCAR-5 ovarian
# ASSAY_SUMMARY: NCI tumour cell line growth inhibition, 48 h
Listed here are molecules together with their documented TGI.
Form entry: value (µM) — number only.

Example entries begin here.
>>> readout_value("CSc1cc([C@@H]2C[C@H]2c2ccc(Cl)cc2)on1")
35.2
>>> readout_value("O=[N+]([O-])c1ccc(-c2csc(N=Nc3c(O)[nH]c4ccccc34)n2)cc1")
45.4

Now turn to the next molecule.
Indicate the recorded TGI value for this molecule: Fc1cccc(COc2ccc(Nc3ncnc4onc(-c5ccccc5)c34)cc2)c1
29.3

###

Consider the following compounds and their measured TGI readings.
# Tested on: NCI-H226 lung
# ASSAY_SUMMARY: NCI tumour cell line growth inhibition, 48 h

>>> readout_value("Cc1ncn(-c2ccccc2O)c1C")
"> 100 µM"
>>> readout_value("Cc1cc(OCc2nnc3n2S(=O)(=O)c2ccccc2N3C)ccc1Cl")
"> 100 µM"
>>> readout_value("CCCCCCN(CCCCCC)CCC(=O)c1ccc2cc(Br)c3ccccc3c2c1")
"> 100 µM"

Alright, here's another compound for you.
Output measured TGI for this item: CC1CCN(C(C)C)P(=S)(Cc2ccccc2)O1 (centres undefined)
> 100 µM

###

# Test system: HOP-62 NSCLC
# ASSAY_SUMMARY: NCI tumour cell line growth inhibition, 48 h
# TGI values compiled below

Specify reported TGI for the compound shown: CCN(CC)CCN(CC)CC.CCN(CC)CCN(CC)CC.[Cu+2].[Cu+2].[O-][Cl+3]([O-])([O-])[O-].[OH3+].[OH3+]
40.3 µM

Check the records and state TGI for COC(=O)C(Cc1c[nH]c2ccccc12)NC(=O)C(Cc1cnc[nH]1)NC(=O)C1CCC(=O)N1C(=O)OCc1ccccc1 (configuration not stated)
> 100 µM

Input CC(C)(C)C(=O)N1C(C(=O)O)Cc2ccccc2[C@@H]1Cc1ccccc1 (some centres not stated) , output reported TGI.
> 100 µM

Specify TGI for O=C(O)/C=C/c1ccc(Oc2ccccc2C(=O)O)o1 and stop.
> 10 µM

Quickly give me recorded TGI for CC1C(C)(C)C23CC12C1(OCCO1)C3Br (configuration not stated)
> 100 µM

Read the entry COc1ccc(/C=C/c2cc(OC)c(OC(C)=O)c(OC)c2)cc1 and write its reported TGI.
73.7 µM

Recall and state the measured TGI for COC(=O)/C=C1/SC(=Nc2cccc(Cl)c2)N(CCc2c[nH]c3ccc(O)cc23)C1=O .
3.93 µM

Using known records, supply TGI for CCC(CC)n1cnc2c(-c3cnc(N)cn3)nc(N3CC4CCC(C3)O4)nc21
> 100 µM

Please give the documented TGI of OC1NC2Nc3ccccc3NC2NC1O (configuration not stated)
> 100 µM

Provide TGI value for the following compound: Cc1c(Cn2c(C)nc3c(C(=O)O)cc(N4CCOCC4)cc32)cccc1C(F)(F)F
> 100 µM

Respond only with TGI recorded for CC1=C(C#N)C23C(=O)N(c4ccccc4)C(=O)C2=C(O)C=CC3(O)N1Cc1ccc(Cl)cc1Cl (configuration not stated)
15.7 µM

Output TGI of COc1ccccc1C#Cc1ccccc1C#Cc1ccc(OCCCCCCOc2ccccc2C#Cc2ccccc2C#Cc2ccccc2OC)cc1
> 100 µM

Quote TGI reported for CCn1c(SCC(=O)N/N=C2\SCC(=O)N2c2ccc(C)cc2)nc2ccccc2c1=O please.
50.7 µM

For CC(C)(C)OC(=O)NCC(CNC(=O)OC(C)(C)C)C(N)=O , write its TGI.
> 100 µM

Please indicate TGI recorded for c1ccc(SC(Sc2ccccc2)=C2CCC2)cc1
> 100 µM

Report TGI for S=C(NCc1ccccc1)Nc1sc(=NCc2ccccc2)nc2sc3c(c12)CCN(N1CCc2c(sc4nc(=NCc5ccccc5)sc(NC(=S)NCc5ccccc5)c24)C1)C3
> 100 µM

Specify reported TGI for the compound shown: CC(=O)OCc1c(O)c2c([nH]c1=O)CCc1ccccc1-2
> 350 µM

Return the recorded TGI value; entry: CN(O)C(=O)CCC(NC(=O)CCC(N)C(=O)O)C(=O)NCC(=O)O (configuration not stated)
> 100 µM

Quickly give me recorded TGI for O=S(=O)(O)c1ccc(N=Nc2ccccc2)cc1
> 100 µM

Let me know recorded TGI for COC(=O)c1cc2c(c(C(=O)OC)c1)CCC2 , thanks.
> 100 µM

Please report TGI for the following compound: CCOC(=O)c1c(O)cn2c1[nH]c1cccc3cccc2c31
> 100 µM

Return TGI (reported value) for this compound: [N-]=[N+]=NCN1C(=O)C2C3C=CC(C2C1=O)C1C2C(=O)N(CN=[N+]=[N-])C(=O)C2C31 (configuration not stated)
> 100 µM

###

# System: KM12 colon
# ASSAY_SUMMARY: NCI tumour cell line growth inhibition, 48 h
RESULT_TYPE: TGI

Solved cases below.
>>> readout_value("O=C(Cc1ccc2ccccc2c1)NCc1ccc(C(=O)NCCc2ccccc2)cc1")
"> 100 µM"
>>> readout_value("NC(=S)N1N=C2CCCCCC[C@@H]2[C@H]1c1ccccc1")
"> 100 µM"

Determine from records and report TGI for Cn1c(-c2ccco2)ccc1-c1ccc(C=O)o1
> 100 µM
